# experiment.summary: method code SF-AS, from DOI: 10.1016/0006-2952(66)90048-7
# run.conditions: pH 7.0
measured.metric: logD

INSERT INTO assay_data (smiles_input, numeric_value) VALUES
  ('NC(=O)c1ccccc1O', 0.89),
  ('O=C(Nc1ccccc1)c1c(O)cccc1O', 1.43);

---

# experiment.summary: method code SF-AS, from DOI: 10.1016/0006-2952(66)90048-7
Readings of logP for the listed compounds
measured.metric: logP

INSERT INTO measurements (smiles_input, measured_metric, numeric_value) VALUES
  ('O=C(NC(=O)c1ccccc1O)c1ccccc1O', 'logP', 1.92),
  ('NC(=O)c1c(O)cccc1O', 'logP', 0.6),
  ('O=C(NC(=O)c1ccc(O)cc1O)c1ccc(O)cc1O', 'logP', 0.86),
  ('O=C(Nc1ccccc1C(=O)O)c1ccccc1O', 'logP', 0.74),
  ('NC(=O)c1ccc(O)cc1O', 'logP', -0.15),
  ('O=C(O)c1ccccc1NC(=O)c1c(O)cccc1O', 'logP', 0.32),
  ('O=C(NC(=O)c1c(O)cccc1O)c1c(O)cccc1O', 'logP', 1.15),
  ('O=C(NC(=O)c1ccccc1O)c1ccccc1', 'logP', 1.38),
  ('CC(=O)Oc1cccc(OC(C)=O)c1C(N)=O', 'logP', -0.62);
